Test: Cytotoxicity assay
Format: cell-based
Conditions: monkey, Vero monkey kidney cells (ATCC CCL-81)
RECORDED ENDPOINT: IC50

Recorded result, COC1C(C(OC2OC(C(=O)NC3CCCCNC3=O)=CC(O)C2O)C(N)=O)OC(n2ccc(=O)[nH]c2=O)C1OC (stereo not shown) , IC50: > 400 µg/mL

----------
Biological target: S. aureus RNA polymerase (Staphylococcus aureus, UniProt P47768+Q2G0N5)
Test: RNA polymerase assay
Format: biochemical
RECORDED ENDPOINT: IC50

Recorded result, COC1C(C(OC2OC(C(=O)NC3CCCCNC3=O)=CC(O)C2O)C(N)=O)OC(n2ccc(=O)[nH]c2=O)C1OC (stereo not shown) [UT-01320 (3)] , IC50: 100 to 150 nM

----------
Molecular target: E. coli RNA polymerase (Escherichia coli, UniProt P0A8T7+P0A8V2)
Sequence (P0A8V2 whole entry): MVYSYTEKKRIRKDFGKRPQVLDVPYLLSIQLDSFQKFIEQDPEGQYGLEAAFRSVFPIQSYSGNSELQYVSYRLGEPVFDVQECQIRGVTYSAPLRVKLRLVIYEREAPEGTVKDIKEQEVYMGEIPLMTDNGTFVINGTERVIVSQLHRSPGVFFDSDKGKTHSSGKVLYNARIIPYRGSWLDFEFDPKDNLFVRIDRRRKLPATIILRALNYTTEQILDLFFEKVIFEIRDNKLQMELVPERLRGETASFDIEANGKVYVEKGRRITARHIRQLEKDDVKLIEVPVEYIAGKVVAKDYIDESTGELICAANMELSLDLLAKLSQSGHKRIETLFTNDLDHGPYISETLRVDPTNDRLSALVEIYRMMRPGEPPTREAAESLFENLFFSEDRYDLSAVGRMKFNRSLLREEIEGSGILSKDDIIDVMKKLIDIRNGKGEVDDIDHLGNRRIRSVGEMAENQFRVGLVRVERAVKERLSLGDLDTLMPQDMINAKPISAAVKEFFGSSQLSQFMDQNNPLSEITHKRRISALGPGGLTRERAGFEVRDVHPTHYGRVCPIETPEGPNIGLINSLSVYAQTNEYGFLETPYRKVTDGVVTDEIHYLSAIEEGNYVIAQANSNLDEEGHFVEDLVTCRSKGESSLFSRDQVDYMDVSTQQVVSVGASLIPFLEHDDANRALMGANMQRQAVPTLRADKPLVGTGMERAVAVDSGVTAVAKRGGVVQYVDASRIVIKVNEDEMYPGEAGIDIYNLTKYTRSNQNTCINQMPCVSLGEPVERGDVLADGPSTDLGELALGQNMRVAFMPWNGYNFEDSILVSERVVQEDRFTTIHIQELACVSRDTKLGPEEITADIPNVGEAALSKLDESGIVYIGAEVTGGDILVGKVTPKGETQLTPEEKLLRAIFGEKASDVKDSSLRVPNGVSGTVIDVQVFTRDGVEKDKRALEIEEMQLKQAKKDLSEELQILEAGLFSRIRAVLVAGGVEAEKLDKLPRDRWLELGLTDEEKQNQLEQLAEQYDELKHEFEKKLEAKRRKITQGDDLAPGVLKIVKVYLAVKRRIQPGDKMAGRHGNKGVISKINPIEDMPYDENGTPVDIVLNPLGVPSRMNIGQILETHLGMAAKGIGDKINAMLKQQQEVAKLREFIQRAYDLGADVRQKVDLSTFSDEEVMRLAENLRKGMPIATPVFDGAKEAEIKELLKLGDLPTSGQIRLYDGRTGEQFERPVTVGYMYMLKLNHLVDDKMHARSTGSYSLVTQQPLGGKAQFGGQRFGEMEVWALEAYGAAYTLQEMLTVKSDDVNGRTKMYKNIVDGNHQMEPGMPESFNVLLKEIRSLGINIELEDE
Sequence (P0A8T7 whole entry): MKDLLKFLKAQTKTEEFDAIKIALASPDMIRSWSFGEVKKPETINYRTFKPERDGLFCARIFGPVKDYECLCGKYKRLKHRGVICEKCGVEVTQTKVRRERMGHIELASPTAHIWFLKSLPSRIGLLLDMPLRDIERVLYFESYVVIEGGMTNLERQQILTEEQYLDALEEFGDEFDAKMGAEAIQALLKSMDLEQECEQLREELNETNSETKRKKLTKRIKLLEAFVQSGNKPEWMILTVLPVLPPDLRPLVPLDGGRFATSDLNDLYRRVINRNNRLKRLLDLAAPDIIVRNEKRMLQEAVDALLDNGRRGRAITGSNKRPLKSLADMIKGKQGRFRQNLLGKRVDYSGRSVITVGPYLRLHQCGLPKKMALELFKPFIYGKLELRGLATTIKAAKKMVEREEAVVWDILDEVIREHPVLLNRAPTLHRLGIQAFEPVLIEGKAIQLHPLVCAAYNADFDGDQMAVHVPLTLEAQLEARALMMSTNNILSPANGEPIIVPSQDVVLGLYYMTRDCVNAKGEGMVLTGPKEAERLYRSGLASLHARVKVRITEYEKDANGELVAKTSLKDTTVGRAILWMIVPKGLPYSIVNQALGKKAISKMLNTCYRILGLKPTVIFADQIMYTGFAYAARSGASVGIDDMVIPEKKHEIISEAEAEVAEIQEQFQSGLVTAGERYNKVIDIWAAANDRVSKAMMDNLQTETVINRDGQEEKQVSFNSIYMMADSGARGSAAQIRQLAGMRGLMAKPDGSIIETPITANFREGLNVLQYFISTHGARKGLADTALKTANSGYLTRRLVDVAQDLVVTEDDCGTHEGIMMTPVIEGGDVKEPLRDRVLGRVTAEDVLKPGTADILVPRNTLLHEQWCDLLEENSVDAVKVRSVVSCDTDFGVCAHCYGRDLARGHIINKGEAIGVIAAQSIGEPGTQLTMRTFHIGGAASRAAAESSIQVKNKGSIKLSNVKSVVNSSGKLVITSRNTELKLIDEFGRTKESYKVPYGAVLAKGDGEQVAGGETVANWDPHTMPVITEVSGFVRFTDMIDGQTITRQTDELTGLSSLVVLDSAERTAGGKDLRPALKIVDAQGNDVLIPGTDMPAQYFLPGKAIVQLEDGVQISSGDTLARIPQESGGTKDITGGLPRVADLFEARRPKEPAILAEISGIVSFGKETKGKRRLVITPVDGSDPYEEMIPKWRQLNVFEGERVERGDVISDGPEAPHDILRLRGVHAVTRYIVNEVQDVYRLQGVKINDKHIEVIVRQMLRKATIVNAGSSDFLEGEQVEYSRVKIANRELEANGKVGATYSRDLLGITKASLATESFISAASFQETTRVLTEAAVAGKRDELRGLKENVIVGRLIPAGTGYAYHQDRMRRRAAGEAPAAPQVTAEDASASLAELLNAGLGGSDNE
Sequence (P0A7Z4 whole entry partner): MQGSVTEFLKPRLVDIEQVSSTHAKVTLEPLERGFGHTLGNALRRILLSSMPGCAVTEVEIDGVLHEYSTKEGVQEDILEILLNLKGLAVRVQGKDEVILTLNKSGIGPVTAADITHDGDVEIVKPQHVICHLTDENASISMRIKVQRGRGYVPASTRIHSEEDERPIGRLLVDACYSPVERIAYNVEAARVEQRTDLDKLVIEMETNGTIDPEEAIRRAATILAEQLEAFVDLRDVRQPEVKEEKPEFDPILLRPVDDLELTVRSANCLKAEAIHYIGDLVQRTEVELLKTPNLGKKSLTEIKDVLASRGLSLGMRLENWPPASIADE
Sequence (P0A800 whole entry partner): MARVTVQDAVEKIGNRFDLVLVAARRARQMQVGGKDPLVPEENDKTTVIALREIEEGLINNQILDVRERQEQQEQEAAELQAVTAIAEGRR
Assay: RNA polymerase assay
RECORDED ENDPOINT: pIC50
Keep in mind that pIC50 stands for -log10 of concentration in molar terms.

Recorded result, CO[C@H]1/C=C/O[C@@]2(C)Oc3c(C)c(O)c4c(O)c(c(/C=N/N5CCN(C)CC5)c(O)c4c3C2=O)NC(=O)/C(C)=C\C=C\[C@H](C)[C@H](O)[C@@H](C)[C@@H](O)[C@@H](C)[C@H](OC(C)=O)[C@@H]1C [Rifampicin (RFP), Rifampicin] , pIC50: 6.92

----------
Target: bacterial RNA polymerases
Test: RNA polymerase assays, enzyme not given
Settings: read-out: IC50, bacterial RNA polymerases; abstract
pIC50: −log10 of the molar value.
RECORDED ENDPOINT: pIC50

Recorded result, COC1C(C(OC2OC(C(=O)NC3CCCCNC3=O)=CC(O)C2O)C(N)=O)OC(n2ccc(=O)[nH]c2=O)C1OC (stereo not shown) , pIC50: 6.82 to 7.00

----------
Test system: non-replicating M. tuberculosis H37Rv (pFCA-luxAB)
Experiment: microbe, parasite or virus in culture
Assay type: cell-based
Settings: Mycobacterium tuberculosis, read-out: MIC μg/mL (LORA)
RECORDED ENDPOINT: MIC

Recorded result, COC1C(O)C(n2ccc(=O)[nH]c2=O)OC1C(OC1OC(C(=O)NC2CCCCNC2=O)=CC(O)C1O)C(N)=O (centres unmarked) , MIC: > 100 µg/mL

Recorded result, `NNC(=O)c1ccncc1` , MIC: > 100 µg/mL

Recorded result, COC1C(C(OC2OC(C(=O)NC3CCCCNC3=O)=CC(O)C2O)C(N)=O)OC(n2ccc(=O)[nH]c2=O)C1OC (centres unmarked) , MIC: 2.58 µg/mL

Recorded result, COC1C(O)C(n2ccc(=O)[nH]c2=O)OC1C(OC1OC(C(=O)Nc2ccc(F)c(F)c2)=CC(O)C1O)C(N)=O (centres unmarked) , MIC: > 100 µg/mL

Recorded result, CC[C@@H](CO)NCCN[C@@H](CC)CO [Ethambutol (EMB), Ethambutol] , MIC: > 100 µg/mL
